test system: Mtb # 8673; experiment: microbe, parasite or virus in culture; type: cell-based; conditions: single well replicates
*1 amine or outer side, *2 acyl side, *3 side chain or, on linkers, in order; H or OH if unused. Where a SMILES comes first, the peptide text is derived from it. [ ]: non-standard residue; d: D form. X1 = C#CCn1cc(C[C@H](N[*:1])C(=O)[*:2])c2ccccc21; NMeLeu(5-OH,4R) = CN[C@@H](C[C@@H](C)CO)C(=O)O; Phe(βR-OMe) = CO[C@H](c1ccccc1)[C@H](N)C(=O)O; Trp(1-Me) = Cn1cc(C[C@H](N)C(=O)O)c2ccccc21; NMeL = CN[C@@H](CC(C)C)C(=O)O; Pra = C#CC[C@H](N)C(=O)O
Param label: returns Yes when MIC Mtb # 8673 < 4 µg/mL, returns No otherwise, including exact equality.

Look over these answered cases.
>  <compound>
NNC(=O)c1ccncc1 [Isoniazid]

>  <measured target>
Mtb # 8673

>  <classification>
No

$$$$
>  <compound>
Nc1ccc(C(=O)O)c(O)c1 [p-Aminosalicylic acid]

>  <measured target>
Mtb # 8673

>  <classification>
Yes

$$$$
>  <compound>
C#CCn1cc(C[C@@H]2NC(=O)[C@H](C(C)C)NC(=O)[C@H](CC(C)C)N(C)C(=O)[C@H](C(C)C)NC(=O)[C@H]([C@H](OC)c3ccccc3)NC(=O)[C@H](C)NC(=O)[C@H](C[C@@H](C)CO)N(C)C2=O)c2ccccc21 [Compound 5] (cyclo(A[Phe(βR-OMe)]V[NMeL]V[X1][NMeLeu(5-OH,4R)]))

>  <measured target>
Mtb # 8673

>  <classification>
Yes

$$$$
>  <compound>
COc1c(N2C[C@@H]3CCCN[C@@H]3C2)c(F)cc2c(=O)c(C(=O)O)cn(C3CC3)c12 [Moxifloxacin, reference compound]

>  <measured target>
Mtb # 8673

>  <classification>
Yes

$$$$
>  <compound>
CC(=O)Nc1ccc(/C=N/NC(N)=S)cc1 [Thiacetazone]

>  <measured target>
Mtb # 8673

>  <classification>
No

$$$$

Query: Please indicate whether the reported MIC Mtb # 8673 of CO[C@H]1/C=C/O[C@@]2(C)Oc3c(C)c(O)c4c(O)c(c(/C=N/N5CCN(C)CC5)c(O)c4c3C2=O)NC(=O)/C(C)=C\C=C\[C@H](C)[C@H](O)[C@@H](C)[C@@H](O)[C@@H](C)[C@H](OC(C)=O)[C@@H]1C [Rifampicin, reference compound] is strictly below 4 µg/mL.
Response: No

Query: Please indicate whether the reported MIC Mtb # 8673 of C#CC[C@@H]1NC(=O)[C@H](CC(C)C)N(C)C(=O)[C@H](C(C)C)NC(=O)[C@H]([C@H](OC)c2ccccc2)NC(=O)[C@H](C)NC(=O)[C@H](C[C@@H](C)CO)N(C)C(=O)[C@H](Cc2cn(C)c3ccccc23)NC1=O [Compound 10] (cyclo(A[Phe(βR-OMe)]V[NMeL][Pra][Trp(1-Me)][NMeLeu(5-OH,4R)])) is strictly below 4 µg/mL.
Response: Yes

Query: Please indicate whether the reported MIC Mtb # 8673 of NCC[C@H](O)C(=O)N[C@@H]1C[C@H](N)[C@@H](O[C@H]2O[C@H](CN)[C@@H](O)[C@H](O)[C@H]2O)[C@H](O)[C@H]1O[C@H]1O[C@H](CO)[C@@H](O)[C@H](N)[C@H]1O [Amikacin, reference compound] is strictly below 4 µg/mL.
Response: No

Reference for the values: paper PMC10914731
